Each recorded value in this set is attributed to patent US20230219906A1.

system: MOLP-8 human multiple myeloma cell line; experiment: Caspase-Glo 3/7 apoptosis induction assay in MOLP-8 cells; format: cell-based; settings: Homo sapiens, MOLP-8, 2 h, caspase-3/7 activity, 2 hours at 37° C.; averaged over all runs on all batches; read-out: MOLP8 AC50
What log10 AC50 was measured for each of the following?
Hey, these are logged values: log10 of AC50, nM being the unit before logging.

INPUT: Tell me its log10 AC50 on MOLP-8 human multiple myeloma cell line: C[C@@H]1CN(C(=O)[C@H]2/C(F)=C/C[C@H](C)[C@@H](C)S(=O)(=O)NC(=O)c3ccc4c(c3)N(C[C@@H]3CCCN32)C[C@@]2(CCCc3cc(Cl)ccc32)CO4)CCN1C
OUTPUT: 2.00

INPUT: Report value only: log10 AC50, MOLP-8 human multiple myeloma cell line, COC1CN(C(=O)[C@H]2/C(F)=C/C[C@H](C)[C@@H](C)S(=O)(=O)NC(=O)c3ccc4c(c3)N(C[C@@H]3CCCN32)C[C@@]2(CCCc3cc(Cl)ccc32)CO4)C1
OUTPUT: 2.19

INPUT: Give MOLP-8 human multiple myeloma cell line log10 AC50 for the following compound: COCCN(CCN1CCOCC1)C(=O)[C@H]1/C(F)=C/C[C@H](C)[C@@H](C)S(=O)(=O)NC(=O)c2ccc3c(c2)N(C[C@@H]2CCCN21)C[C@@]1(CCCc2cc(Cl)ccc21)CO3
OUTPUT: 1.56

INPUT: Quote MOLP-8 human multiple myeloma cell line log10 AC50 for entry COCCN(CCOC)C(=O)[C@H]1/C(F)=C/C[C@H](C)[C@@H](C)S(=O)(=O)NC(=O)c2ccc3c(c2F)N(C[C@@H]2CCCN21)C[C@@]1(CCCc2cc(Cl)ccc21)CO3 .
OUTPUT: 2.37

INPUT: Recall the reported log10 AC50 of COCCN(CCOC)C(=O)[C@H]1/C(F)=C/C[C@H](C)[C@@H](C)S(=O)(=O)NC(=O)c2ccc3c(c2)N(C[C@@H]2CCCN21)C[C@@]1(CCCc2cc(Cl)ccc21)CO3 on MOLP-8 human multiple myeloma cell line and write it down.
OUTPUT: 1.29

INPUT: Provide log10 AC50, recorded with MOLP-8 human multiple myeloma cell line, of C[C@@H]1[C@@H](C)C/C=C(\F)[C@H](C(=O)N2CCC3(CCCCC3)C2)N2CCC[C@H]2CN2C[C@@]3(CCCc4cc(Cl)ccc43)COc3ccc(cc32)C(=O)NS1(=O)=O
OUTPUT: 2.68

INPUT: Report value only: log10 AC50, MOLP-8 human multiple myeloma cell line, C[C@@H]1[C@@H](C)C/C=C(\F)[C@H](C(=O)N(C)CC2COCCO2)N2CCC[C@H]2CN2C[C@@]3(CCCc4cc(Cl)ccc43)COc3ccc(cc32)C(=O)NS1(=O)=O (single isomer, unassigned)
OUTPUT: 1.88

INPUT: Tell me log10 AC50 of C[C@@H]1[C@@H](C)C/C=C(\F)[C@H](C(=O)N(C)CCOc2cncnc2)N2CCC[C@H]2CN2C[C@@]3(CCCc4cc(Cl)ccc43)COc3ccc(cc32)C(=O)NS1(=O)=O when tested on MOLP-8 human multiple myeloma cell line.
OUTPUT: 2.00
